# MIC listing for each entry below
system: Candida albicans ATCC 90028
Report the value in µM with no unit label.

Recorded MIC (compound CC(C)C[C@H](NC(=O)[C@H](C)NC(=O)[C@H](CCCCN)NC(=O)[C@H](CC(C)C)NC(=O)[C@H](CC(C)C)NC(=O)[C@H](CCCCN)NC(=O)[C@H](CCCCN)NC(=O)[C@H](CC(C)C)NC(=O)[C@H](CC(C)C)NC(=O)[C@H](CCCCN)NC(=O)[C@H](CC(C)C)NC(=O)[C@H](CC(C)C)NC(=O)[C@@H](N)CCCCN)C(=O)NCC(N)=O ): 20

Recorded MIC (compound C[C@H](NC(=O)[C@@H](NC(=O)[C@H](CCCN=C(N)N)NC(=O)[C@H](CO)NC(=O)CNC(=O)[C@H](CCCN=C(N)N)NC(=O)[C@H](CCC(N)=O)NC(=O)[C@@H](NC(=O)[C@H](CO)NC(=O)[C@H](CCC(N)=O)NC(=O)CNC(=O)[C@H](Cc1cnc[nH]1)NC(=O)CNC(=O)[C@H](CO)NC(=O)[C@H](Cc1cnc[nH]1)NC(=O)[C@H](C)NC(=O)[C@@H](N)Cc1cnc[nH]1)[C@@H](C)O)[C@@H](C)O)C(=O)NCC(=O)N[C@@H](CCCN=C(N)N)C(=O)O ): 16.1

Recorded MIC (compound CC(C)C[C@H](NC(=O)CNC(=O)[C@H](CO)NC(=O)CNC(=O)[C@H](CCCN=C(N)N)NC(=O)[C@H](CCCN=C(N)N)NC(=O)CN)C(=O)NCC(=O)N[C@@H](CCCN=C(N)N)C(=O)N[C@@H](CO)C(=O)N[C@@H](CO)C(=O)N[C@@H](CO)C(=O)N[C@@H](CCCN=C(N)N)C(=O)NCC(=O)N[C@@H](CCC(N)=O)C(=O)N[C@@H](CCCN=C(N)N)C(=O)NCC(=O)N[C@@H](CO)C(=O)NCC(=O)N[C@@H](CO)C(=O)NCC(=O)N[C@@H](CCCN=C(N)N)C(=O)O ): 14.7

Recorded MIC (compound CC[C@H](C)[C@H](NC(=O)[C@H](CCCN=C(N)N)NC(=O)[C@H](CCC(N)=O)NC(=O)[C@@H](NC(=O)[C@@H](NC(=O)[C@H](CCCN=C(N)N)NC(=O)[C@@H](N)CCCCN)[C@@H](C)CC)C(C)C)C(=O)N[C@@H](CCCCN)C(=O)N[C@@H](CC(=O)O)C(=O)N[C@@H](Cc1ccccc1)C(=O)N[C@@H](CC(C)C)C(=O)N[C@@H](CCCCN)C(=O)O ): 10

====

Escherichia coli ATCC 25922: reported MIC for various compounds.
Report the value in µM with no unit label.

Line Notation: CC[C@H](C)[C@H](NC(=O)[C@@H]1CCCN1C(=O)[C@H](CC(C)C)NC(=O)[C@@H](N)Cc1ccccc1)C(=O)N[C@H](C(=O)N[C@H](C(=O)N[C@@H](CC(N)=O)C(=O)N[C@@H](CC(C)C)C(=O)N[C@@H](CC(C)C)C(=O)N[C@@H](CO)C(=O)NCC(=O)N[C@@H](CC(C)C)C(=O)N[C@@H](CC(C)C)C(=O)O)[C@@H](C)O)C(C)C
MIC (µM): 231

Line Notation: CC[C@H](C)[C@H](NC(=O)[C@H](CCCCN)NC(=O)[C@H](CCCCN)NC(=O)[C@@H](NC(=O)[C@H](C)NC(=O)[C@H](CO)NC(=O)[C@@H](NC(=O)[C@H](C)NC(=O)[C@H](CO)NC(=O)[C@@H]1CCCN1C(=O)[C@@H](NC(=O)[C@H](CC(C)C)NC(=O)[C@H](CO)NC(=O)[C@H](CC(C)C)NC(=O)[C@H](CC(C)C)NC(=O)[C@H](Cc1ccccc1)NC(=O)[C@@H](N)Cc1ccccc1)[C@@H](C)CC)[C@@H](C)CC)[C@@H](C)CC)C(N)=O
MIC (µM): 24

Line Notation: CC(C)C[C@H](NC(=O)[C@H](CCCCN)NC(=O)[C@H](CCCCN)NC(=O)[C@H](C)NC(=O)[C@H](CC(C)C)NC(=O)[C@H](CCCCN)NC(=O)[C@H](C)NC(=O)[C@H](CC(C)C)NC(=O)[C@H](CCCCN)NC(=O)[C@H](CCCCN)NC(=O)[C@H](C)NC(=O)[C@H](CC(C)C)NC(=O)[C@H](CCCCN)NC(=O)[C@H](C)NC(=O)[C@H](CC(C)C)NC(=O)[C@H](CCCCN)NC(=O)[C@H](CCCCN)NC(=O)[C@H](C)NC(=O)[C@H](CC(C)C)NC(=O)[C@@H](N)CCCCN)C(=O)N[C@@H](C)C(N)=O
MIC (µM): 4

Read the next record carefully.
Entry CC[C@H](C)[C@H](NC(=O)[C@H](Cc1ccc(O)cc1)NC(=O)[C@H](CCC(N)=O)NC(=O)[C@H](CC(C)C)NC(=O)[C@H](C)NC(=O)[C@H](CCCCN)NC(=O)[C@H](CCCCN)NC(=O)[C@H](CCSC)NC(=O)[C@H](CCCCN)NC(=O)[C@@H](N)CCCCN)C(=O)N[C@@H](CCCCN)C(=O)N[C@@H](CC(C)C)C(=O)N[C@@H](CC(C)C)C(=O)N[C@@H](CCCCN)C(N)=O ; assay system Escherichia coli ATCC 25922; MIC recorded at 50

====

Escherichia coli ATCC 25922: reported MIC for various compounds.
# answer = value followed by unit

Answered examples (2):
Compound: CC[C@H](C)[C@H](NC(=O)[C@H](C)NC(=O)[C@H](CC(=O)O)NC(=O)[C@H](Cc1ccccc1)NC(=O)[C@H](CC(C)C)NC(=O)CN)C(=O)N[C@@H](CCCCN)C(=O)N[C@@H](CCCCN)C(=O)N[C@H](C(=O)N[C@@H](C)C(=O)N[C@@H](CCC(=O)O)C(=O)N[C@@H](CO)C(=O)N[C@@H](Cc1ccccc1)C(N)=O)[C@@H](C)CC [GLFDAIKKIAESF]
MIC: 178 µM
//
Compound: CC(C)C[C@H](NC(=O)[C@H](Cc1c[nH]c2ccccc12)NC(=O)[C@H](CCCCN)NC(=O)[C@H](CCCCN)NC(=O)[C@H](CC(C)C)NC(=O)[C@H](Cc1c[nH]c2ccccc12)NC(=O)[C@H](CCCCN)NC(=O)[C@H](CCCCN)NC(=O)[C@H](CC(C)C)NC(=O)[C@H](Cc1c[nH]c2ccccc12)NC(=O)[C@@H](N)CCCCN)C(=O)N[C@@H](CCCCN)C(N)=O [KWLKKWLKKWLK]
MIC: 1 µM

Read the next record carefully.
Entry NC(=O)[C@H](Cc1ccccc1)NC(=O)[C@H](CCCN=C(N)N)NC(=O)[C@H](Cc1ccccc1)NC(=O)[C@H](CCCN=C(N)N)NC(=O)[C@H](CS)NC(=O)[C@H](Cc1ccccc1)NC(=O)[C@H](CCCN=C(N)N)NC(=O)[C@H](CCCN=C(N)N)NC(=O)[C@H](CCCN=C(N)N)NC(=O)[C@H](CS)NC(=O)[C@H](CCCN=C(N)N)NC(=O)[C@H](Cc1ccccc1)NC(=O)[C@H](CCCN=C(N)N)NC(=O)[C@@H](N)Cc1ccccc1 [FRFRCRRRFCRFRF] ; assay system Escherichia coli ATCC 25922; MIC recorded at 1 µM

====

Escherichia coli ATCC 25922: reported MIC for various compounds.
Report the value in µM with no unit label.

Answered examples (3):
Line Notation: CC[C@H](C)[C@H](NC(=O)[C@H](CCCCN)NC(=O)[C@H](CCCCN)NC(=O)[C@H](C)NC(=O)[C@H](CC(C)C)NC(=O)[C@H](CC(N)=O)NC(=O)[C@@H](NC(=O)[C@H](CC(C)C)NC(=O)[C@@H](NC(=O)CNC(=O)[C@H](CC(C)C)NC(=O)[C@H](Cc1ccccc1)NC(=O)[C@@H](N)Cc1cnc[nH]1)[C@@H](C)O)C(C)C)C(=O)N[C@@H](CC(C)C)C(N)=O
Unit Abbrev: µM
MIC: 20

Line Notation: CC[C@H](C)[C@H](NC(=O)[C@H](CCCCN)NC(=O)[C@@H](NC(=O)[C@H](Cc1ccccc1)NC(=O)[C@H](C)NC(=O)[C@H](CCCCN)NC(=O)CNC(=O)[C@H](Cc1ccccc1)NC(=O)[C@H](CCCCN)NC(=O)[C@H](CCCCN)NC(=O)[C@H](C)NC(=O)[C@H](CCCCN)NC(=O)[C@H](CCCCN)NC(=O)[C@H](CC(C)C)NC(=O)[C@H](Cc1ccccc1)NC(=O)[C@@H](N)CCCCN)C(C)C)C(=O)N[C@@H](CC(C)C)C(N)=O
Unit Abbrev: µM
MIC: 3.91

Line Notation: CC[C@H](C)[C@H](NC(=O)[C@H](CCSC)NC(=O)[C@H](C)NC(=O)[C@@H]1CCCN1C(=O)[C@@H](NC(=O)[C@@H](NC(=O)[C@H](CCCCN)NC(=O)[C@@H](NC(=O)[C@H](CC(C)C)NC(=O)CNC(=O)CNC(=O)[C@H](CC(C)C)NC(=O)[C@@H](N)Cc1ccccc1)[C@@H](C)CC)[C@@H](C)CC)C(C)C)C(=O)N[C@H]1CSSC[C@@H](C(=O)O)NC(=O)[C@H](CCCCN)NC(=O)[C@H](CCCCN)NC(=O)[C@H](CCCN=C(N)N)NC(=O)[C@H](C(C)C)NC(=O)[C@H](C)NC1=O
Unit Abbrev: µM
MIC: 116

Recorded MIC (compound CC(C)C[C@H](NC(=O)[C@H](CC(C)C)NC(=O)[C@H](CC(N)=O)NC(=O)[C@H](CO)NC(=O)CNC(=O)[C@@H](NC(=O)[C@H](CCCCN)NC(=O)[C@H](CC(C)C)NC(=O)CNC(=O)[C@@H](NC(=O)[C@H](CCCCN)NC(=O)[C@H](CC(C)C)NC(=O)[C@H](CC(C)C)NC(=O)[C@H](CO)NC(=O)CNC(=O)[C@H](CC(C)C)NC(=O)[C@H](CC(C)C)NC(=O)[C@@H](N)CC(N)=O)[C@@H](C)O)C(C)C)C(N)=O ): 128

Recorded MIC (compound CC[C@H](C)[C@H](NC(=O)[C@@H](NC(=O)[C@H](CCCCN)NC(=O)[C@H](CC(C)C)NC(=O)[C@H](CC(C)C)NC(=O)[C@@H](N)CCCCN)C(C)C)C(=O)N[C@@H](CCCCN)C(=O)N[C@@H](CCCCN)C(=O)N[C@@H](CC(C)C)C(=O)N[C@@H](CC(C)C)C(N)=O ): 5.02
